Biological target: GlcNAc(b1-3)[GlcNAc(b1-6)]GalNAc
Assay: glycan array binding signal (z-score within array); higher = stronger binding
Conditions: glycan notation: IUPAC condensed, linker removed
The sample as a whole holds a higher share of the strongest signals than the screen did.
Entries and their glycan array binding signal (z-score)
Write the value as a bare number.

[Q] Note down glycan array binding signal (z-score) recorded for Apa (Mycobacterium tuberculosis), Rv1860 (protein) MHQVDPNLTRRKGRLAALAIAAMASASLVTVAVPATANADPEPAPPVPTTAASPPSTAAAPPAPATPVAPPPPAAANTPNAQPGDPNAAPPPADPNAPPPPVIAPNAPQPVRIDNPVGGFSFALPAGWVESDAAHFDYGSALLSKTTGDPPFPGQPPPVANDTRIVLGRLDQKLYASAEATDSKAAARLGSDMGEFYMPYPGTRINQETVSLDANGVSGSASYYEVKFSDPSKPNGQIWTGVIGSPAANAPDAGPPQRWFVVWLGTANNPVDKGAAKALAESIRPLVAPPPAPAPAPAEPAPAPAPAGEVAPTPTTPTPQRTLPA
[A] -0.468

[Q] Note down glycan array binding signal (z-score) recorded for BIp1-His (Cryptococcus neoformans) (protein) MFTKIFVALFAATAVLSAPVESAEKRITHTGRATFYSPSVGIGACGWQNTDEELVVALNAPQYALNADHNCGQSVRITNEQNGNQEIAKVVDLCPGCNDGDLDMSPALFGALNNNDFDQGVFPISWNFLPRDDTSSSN
[A] -0.522

[Q] Note down glycan array binding signal (z-score) recorded for FedF (Escherichia coli), Q47212 (protein) MRLKYILIIPLLLISLSVFASTLQVDKSVSYDWINSSASSAQVTGTLLGTGKTNTTQMPALYTWQHQIYNVNFIPSSSGTLTCQAGTILVWKNGRETQYALECRVSIHHSSGSINESQWGQQSQVGFGTACGNKKCRFTGFEISLRIPPNAQTYPLSSGDLKGSFSLTNKEVNWSASIYVPAIAKSYRLDTSITLPDTVNLKQNQATPVYYTFSAPSVSNTITGIPNQNDMPSSNVKLTIGPIQSKTTALYVQPDATGSWYDLSKSITMTVVKSSMLNFKGINAKPGNVTLSVPIVFEIQ
[A] -0.248
